pIC50: −log10 of the molar value.
Quick record of pIC50 values for Acetylcholinesterase (Electrophorus electricus).
value_type: pIC50

[[record]]
structure = "Oc1ccc(/C=N/NC(=S)NC2CCN(Cc3ccccc3)CC2)c(O)c1O"
test_target = "Acetylcholinesterase (Electrophorus electricus)"
result = "4.65 to 5.99"

[[record]]
structure = "Oc1cccc(/C=N/NC(=S)NC2CCN(Cc3ccccc3)CC2)c1O"
test_target = "Acetylcholinesterase (Electrophorus electricus)"
result = 5.99

[[record]]
structure = "Oc1cccc2ccc(/C=N/NC(=S)NC3CCN(Cc4ccccc4)CC3)nc12"
test_target = "Acetylcholinesterase (Electrophorus electricus)"
result = "4.65 to 5.99"

[[record]]
structure = "Cc1ncc(CO)c(/C=N/NC(=S)NC2CCN(Cc3ccccc3)CC2)c1O"
test_target = "Acetylcholinesterase (Electrophorus electricus)"
result = 5.31

[[record]]
structure = "Oc1ccc2ccccc2c1/C=N/NC(=S)NC1CCN(Cc2ccccc2)CC1"
test_target = "Acetylcholinesterase (Electrophorus electricus)"
result = 5.91

[[record]]
structure = "S=C(N/N=C/c1ccc2ccccc2n1)NC1CCN(Cc2ccccc2)CC1"
test_target = "Acetylcholinesterase (Electrophorus electricus)"
result = "4.65 to 5.99"

[[record]]
structure = "Oc1ccccc1/C=N/NC(=S)NC1CCN(Cc2ccccc2)CC1"
test_target = "Acetylcholinesterase (Electrophorus electricus)"
result = "4.65 to 5.99"

[[record]]
structure = "S=C(N/N=C/c1ccccn1)NC1CCN(Cc2ccccc2)CC1"
test_target = "Acetylcholinesterase (Electrophorus electricus)"
result = "4.65 to 5.99"

